- TEST_SYSTEM: T1, cyno FcRn/b2M (cyno, UniProt Q8SPV9 24-297; Q8SPW0 21-119, biotinylated)
- T1 construct: bought recombinant biotinylated protein (Immunitrack ITF05 or ACRO FCM-C82W5); also called cFcRn; cFcRn/cb2M
- T1 sequence (Q8SPV9 24-297 limits assumed, chain 1 of 2): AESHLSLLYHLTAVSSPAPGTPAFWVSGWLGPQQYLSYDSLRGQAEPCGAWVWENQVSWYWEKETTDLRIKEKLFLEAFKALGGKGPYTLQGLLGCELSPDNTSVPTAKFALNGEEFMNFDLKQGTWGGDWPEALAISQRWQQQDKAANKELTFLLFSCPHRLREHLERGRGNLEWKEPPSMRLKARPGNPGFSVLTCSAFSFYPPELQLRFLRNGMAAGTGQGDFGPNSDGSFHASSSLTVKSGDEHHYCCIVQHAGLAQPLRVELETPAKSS
- T1 sequence (Q8SPW0 21-119 limits assumed, chain 2 of 2): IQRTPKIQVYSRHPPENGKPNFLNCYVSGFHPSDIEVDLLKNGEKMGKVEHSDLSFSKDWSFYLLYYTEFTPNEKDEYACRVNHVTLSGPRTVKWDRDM
- MEASUREMENT_NOTES: SPR pH 6.0;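 also: surface plasmon resonance kinetics at 25 °C, diluted periplasmic extracts injected over immobilized ligand surfaces, 120 s association then 600–3600 s dissociation, running buffer containing 150 mM NaCl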
VALUE_KIND: koff (s⁻¹)

Answered examples (2):
T0263018B11 T57P (VHH, name in Kabat numbering, FLAG3-His6 tagged) VHH: EVQLVESGGGVVQPGGSLRLSCAASGFTFSSYAMYWVRQAPGKGLEWVSAISSGGGSPDYADSVKGRFTISRDNSKNTLYLQMNSLRPEDTALYYCAADTLYTSLTWYSYWGQGTLVTVSS : 0.0013
T0263018B11 A33P (VHH, name in Kabat numbering, FLAG3-His6 tagged) VHH: EVQLVESGGGVVQPGGSLRLSCAASGFTFSSYPMYWVRQAPGKGLEWVSAISSGGGSTDYADSVKGRFTISRDNSKNTLYLQMNSLRPEDTALYYCAADTLYTSLTWYSYWGQGTLVTVSS : 0.00099

a = T0263018B11 S31P (VHH, name in Kabat numbering, FLAG3-His6 tagged) VHH: EVQLVESGGGVVQPGGSLRLSCAASGFTFSPYAMYWVRQAPGKGLEWVSAISSGGGSTDYADSVKGRFTISRDNSKNTLYLQMNSLRPEDTALYYCAADTLYTSLTWYSYWGQGTLVTVSS
b = T0263018B11 L100aM (VHH, name in Kabat numbering, FLAG3-His6 tagged) VHH: EVQLVESGGGVVQPGGSLRLSCAASGFTFSSYAMYWVRQAPGKGLEWVSAISSGGGSTDYADSVKGRFTISRDNSKNTLYLQMNSLRPEDTALYYCAADTLYTSMTWYSYWGQGTLVTVSS
// pick larger koff from pair: a vs b Provide the label of your selected option as the answer.
b
(b: 0.013 s⁻¹, a: 0.00073 s⁻¹)

src = patent US20240132624A1
